These measurements were taken from patent US11912693B2.

# SYSTEM NAME: human sphingosine-1-phosphate receptor 1 (S1P1) (Homo sapiens (Human))
# Sequence (P21453 whole entry, looked up): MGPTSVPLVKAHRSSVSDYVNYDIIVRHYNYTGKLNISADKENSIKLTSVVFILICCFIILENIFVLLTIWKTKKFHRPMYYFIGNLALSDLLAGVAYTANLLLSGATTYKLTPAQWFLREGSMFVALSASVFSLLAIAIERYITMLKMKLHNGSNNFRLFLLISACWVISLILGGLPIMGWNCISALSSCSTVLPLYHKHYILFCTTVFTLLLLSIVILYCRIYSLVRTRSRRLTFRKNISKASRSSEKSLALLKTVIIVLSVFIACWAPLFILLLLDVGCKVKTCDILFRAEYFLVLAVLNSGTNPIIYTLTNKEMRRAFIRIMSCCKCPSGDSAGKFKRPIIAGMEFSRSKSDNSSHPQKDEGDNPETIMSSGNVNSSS
# MEASUREMENT NOTES: Inhibition of cAMP production (HTRF cAMP HiRange), S1P1 CHO-K1 cells
# Format: cell-based
# APPLIED CONDITIONS: CHO-K1; efficacy (SPAN) normalized to fingolimod; read-out: hS1P1 cAMP SPAN
PARAMETER: Emax

Input: Reported Emax for CCCn1nnc2cc(-c3nc(-c4cc(C)cc(C)c4)no3)ccc21 : what is it?
Output: < 75%

Input: Sample CC(C)n1nnc2cc(-c3nc(-c4ccccc4)co3)ccc21 — what was its Emax?
Output: < 75%

Input: Given the entry OCCn1nnc2cc(-c3noc(-c4ccccc4Br)n3)ccc21 , report its measured Emax.
Output: < 75%

Input: Consider the compound shown here: COc1ccc2nc(-c3ccc4c(c3)nnn4C(C)C)oc2c1 What is its recorded Emax?
Output: > 75%

Input: What does the record list as Emax for CC(C)n1nnc2cc(-c3nc4c(o3)CCc3sccc3-4)ccc21 ?
Output: > 75%

Input: Data request, read-out Emax, for N#Cc1cc(-c2nc(-c3ccc4c(c3)CC(=O)N4)no2)ccc1NCC1CC1
Output: > 75%

Input: Requested read-out: Emax. Entry: CC(C)n1nnc2cc(-c3nc4ccncc4o3)ccc21
Output: > 75%

Input: For the compound shown here, COc1ccc(-c2nc(-c3ccc4c(c3)nnn4C(C)C)no2)c(C)c1 , give the reported Emax.
Output: > 75%

Input: Quick one: Emax of COc1cccnc1-c1noc(-c2ccc3c(c2)nnn3C(C)C)n1 ?
Output: > 75%

Input: Emax for C=CCNc1ccc(-c2nc(-c3ccc4[nH]ccc4c3)no2)cc1C#N ?
Output: > 75%

Input: Record request: Emax value, item COc1cccc2oc(-c3ccc4c(c3)nnn4CC(C)C)nc12
Output: > 75%

Input: // Emax lookup, key: CC(C)CCn1nnc2cc(-c3nc(-c4ccc(C(F)(F)F)c(F)c4)no3)ccc21
Output: < 75%
